Test system: T. cruzi (Tulahuen strain)
Assay: microbe, parasite or virus in culture
Assay type: cell-based, Trypanosoma cruzi
Details: Trypanosoma cruzi, TULAHUEN, Fibroblast, 120 h, 10 uM, Table S2; read-out: T. cruzi % growth @ 10 uM (Amastigotes)
test readout: activity at 10 µM (%)

[[record]]
compound = "COC(=O)C1(C)CCCC2(C)c3ccc(C(C)C)cc3C(=O)CC12 (stereo not shown) [7-OXOC[…], METHYL ESTER]"
numeric_readout = 5.1

[[record]]
compound = "CC(=O)OC1CC2C(C)(C)C(O)CCC2(C)C2CCC3(C)C(c4ccoc4)OC(=O)C4OC43C12C (stereo not drawn) [beta-DIHYDROGEDUNOL]"
numeric_readout = 21.8

[[record]]
compound = "COc1c2c(cc3occ(-c4ccc5c(c4)OCO5)c(=O)c13)OC(C)(C)C=C2"
numeric_readout = 2.5

[[record]]
compound = "COc1c(CC(=O)c2cc3c(cc2O)OC(C)(C)C(O)C3)ccc2c1C=CC(C)(C)O2 (stereo not shown) [DIHYDROMUNDULETONE]"
numeric_readout = 4.4

[[record]]
compound = "CC(=O)OC1(C(C)=O)CCC2C3C=C(Cl)C4=CC(=O)CCC4(C)C3CCC21C (stereo not shown) [CHLORMADINONE ACETATE]"
numeric_readout = 9.7

[[record]]
compound = "C#C[C@]1(O)CC[C@H]2[C@@H]3CCC4=Cc5oncc5C[C@]4(C)[C@H]3CC[C@@]21C"
numeric_readout = 0.9

[[record]]
compound = "C[C@@H]1CC[C@@]23CCC4(C)[C@@](C=CC5[C@@]6(C)CCC(=O)C(C)(C)C6CC[C@]54C)(OC2=O)C3[C@H]1C (stereo partly shown) [3-OXOURSAN (28-13)OLIDE]"
numeric_readout = 11.1


* * *

Assay: in vitro
Format: cell-based, murine
Conditions: mouse, 3T3 fibroblasts, 72 hours; separate assays separated by semicolons; read-out: Mammalian cell CC50
test readout: CC50 at 72 h (µM)

[[record]]
molecule = "CCC(C)(C)C(=O)OC1CC(C)C=C2C=CC(C)C(CCC3CC(O)CC(=O)O3)C21 (stereo not shown) [Simvastatin]"
numeric_readout = 4


* * *

Tested on: T. cruzi (Tulahuen strain)
Test: microbe, parasite or virus in culture
Assay type: cell-based, Trypanosoma cruzi
test readout: Selectivity index

[[record]]
molecule = "CN(C/C=C/C#CC(C)(C)C)Cc1cccc2ccccc12 [Terbinafine]"
test_readout = "Selectivity index"
operator = "="
numeric_readout = 2.9

[[record]]
molecule = "CCOC(=O)C1=C(COCCN)NC(C)=C(C(=O)OC)C1c1ccccc1Cl.O=S(=O)(O)c1ccccc1 (stereo not shown) [Amlodipine]"
test_readout = "Selectivity index"
operator = "="
numeric_readout = 11.8

[[record]]
molecule = "Cl.Fc1ccc(C2CCNCC2COc2ccc3c(c2)OCO3)cc1 (stereo not shown) [Paroxetine]"
test_readout = "Selectivity index"
operator = "="
numeric_readout = 4.2

[[record]]
molecule = "Nc1nc(N)c2nc(-c3ccccc3)c(N)nc2n1 [Triamterene, 6-phenylpteridine-2,4,7-triamine]"
test_readout = "Selectivity index"
operator = "="
numeric_readout = 11.4

[[record]]
molecule = "Oc1ncnc2[nH]ncc12 [Allopurinol]"
test_readout = "Selectivity index"
operator = ">"
numeric_readout = 17.9

[[record]]
molecule = "CN(C)CC/C=C1/c2ccccc2Sc2ccc(Cl)cc21 [Chlorprothixene]"
test_readout = "Selectivity index"
operator = "="
numeric_readout = 5.2

[[record]]
molecule = "CN(C)c1ccc(O)c2c1CC1CC3C(N(C)C)C(O)=C(C(N)=O)C(=O)C3(O)C(O)=C1C2=O.Cl (stereo not shown) [Minocycline]"
test_readout = "Selectivity index"
operator = ">"
numeric_readout = 5.1


* * *

System: 3T3 fibroblast cells
Assay: in vitro
Type: cell-based, murine
Conditions: 3T3 fibroblasts, 72 hours; separate assays separated by semicolons; read-out: Mammalian cell CC50
# CC50 listing for each entry below
test readout: CC50 (µM)

[[record]]
compound = "Nc1nc(N)c2nc(-c3ccccc3)c(N)nc2n1"
test_readout = "CC50"
numeric_readout = 14.8

[[record]]
compound = "CN(C)CCC=C1c2ccccc2CCc2ccccc21"
test_readout = "CC50"
numeric_readout = 22

[[record]]
compound = "C=CCN(C)CCCCCCOc1ccc(C(=O)c2ccc(Br)cc2)c(F)c1"
test_readout = "CC50"
numeric_readout = 7.4

[[record]]
compound = "CSc1ccc2c(c1)N(CCC1CCCCN1C)c1ccccc1S2 (stereo not shown)"
test_readout = "CC50"
numeric_readout = 8.66


* * *

Entries annotated with measured EC50
Test system: T. cruzi (Tulahuen strain)
Experiment: microbe, parasite or virus in culture
Type: cell-based, Trypanosoma cruzi
Settings: Trypanosoma cruzi, TULAHUEN, Fibroblast, Table S2, amastigotes; read-out: T. cruzi EC50
Where a name gives a salt, the structure may show the parent alone.
test readout: EC50 (µM)

[[record]]
compound = "COC(=O)C1C2CC3c4[nH]c5cc(OC)ccc5c4CCN3CC2CC(OC(=O)c2cc(OC)c(OC)c(OC)c2)C1OC (stereo not drawn)"
numeric_readout = 5.97

[[record]]
compound = "COc1c(C)c2c(c(O)c1CC=C(C)CCC(=O)O)C(=O)OC2"
numeric_readout = 0.32

[[record]]
compound = "COc1cc2nc(N3CCN(C(=O)c4ccco4)CC3)nc(N)c2cc1OC [PRAZOSIN HYDROCHLORIDE]"
numeric_readout = 8.36

[[record]]
compound = "CC(=O)N1CCN(c2ccc(OC[C@H]3CO[C@](Cn4ccnc4)(c4ccc(Cl)cc4Cl)O3)cc2)CC1"
numeric_readout = 0.0003

[[record]]
compound = "N=C(N)c1ccc(OCCCCCOc2ccc(C(=N)N)cc2)cc1"
numeric_readout = 0.18

[[record]]
compound = "Nc1nc(N)c2nc(-c3ccccc3)c(N)nc2n1"
numeric_readout = 18.9

[[record]]
compound = "CCCCCC(=O)O[C@]1(C(C)=O)CC[C@H]2C3CCC4=CC(=O)CCC4(C)[C@H]3CCC21C (stereo partly drawn) [HYDROXYPROGESTERONE CAPROATE]"
numeric_readout = 10

[[record]]
compound = "CCN(CCO)CCCC(C)Nc1ccnc2cc(Cl)ccc12 (stereo not drawn) [HYDROXYCHLOROQUINE SULFATE]"
numeric_readout = 4.64

[[record]]
compound = "C#C[C@]1(O)CC[C@H]2[C@@H]3CCC4=Cc5oncc5C[C@]4(C)[C@H]3CC[C@@]21C"
numeric_readout = 6.97

[[record]]
compound = "CC1CCC2C(C)C(=O)OC3OC4(C)CCC1C32OO4 (stereo not drawn)"
numeric_readout = 5.02

[[record]]
compound = "COC(=O)C1=C(C)NC(C)=C(C(=O)OCCN(C)Cc2ccccc2)C1c1cccc([N+](=O)[O-])c1 (stereo not drawn)"
numeric_readout = 5.85

[[record]]
compound = "CC1C=CC=CC=CC=CC=CC=CC=CC(OC2OC(C)C(O)C(N)C2O)CC2OC(O)(CC(O)CC(O)C(O)CCC(O)CC(O)CC(=O)OC(C)C(C)C1O)CC(O)C2C(=O)O (stereo not drawn)"
numeric_readout = "4e-05"


* * *

System: T. cruzi (Tulahuen strain)
Experiment: microbe, parasite or virus in culture
Type: cell-based, Trypanosoma cruzi
Conditions: Trypanosoma cruzi, TULAHUEN, Fibroblast, 120 h, 10 uM, Table S2; read-out: T. cruzi % growth @ 10 uM (Amastigotes)
Where a name gives a salt, the structure may show the parent alone.
The reader will find reported activity at 10 µM values listed item by item below.
test readout: activity at 10 µM (%)

[[record]]
molecule = "CCOC(=O)C(CCc1ccccc1)NC1CCc2ccccc2N(CC(=O)O)C1=O (stereo not drawn) [BENAZEPRIL HYDROCHLORIDE]"
numeric_readout = 1

[[record]]
molecule = "COC(=O)CCC(C)C1CCC2C3CCC4CC(O)CCC4(C)C3CC(O)C12C (stereo not drawn) [METHYL DEOXYCHOLATE]"
numeric_readout = 22.9

[[record]]
molecule = "COc1cc(NC(C)CCCN)c2ncccc2c1 (stereo not drawn)"
numeric_readout = 4.7

[[record]]
molecule = "COC(=O)C1C2CC3c4[nH]c5cc(OC)ccc5c4CCN3CC2CC(OC(=O)c2cc(OC)c(OC)c(OC)c2)C1OC (stereo not drawn)"
numeric_readout = 4

[[record]]
molecule = "c1ccc(-c2ccc(C(c3ccccc3)n3ccnc3)cc2)cc1 (stereo not drawn)"
numeric_readout = 0.7

[[record]]
molecule = "COc1ccc(CCN2CCC(Nc3nc4ccccc4n3Cc3ccc(F)cc3)CC2)cc1"
numeric_readout = 11.6

[[record]]
molecule = "CC(=O)OC1CCC2(C)C3=C(CCC2C1(C)C)C1(C)CCC(C(C)CCC=C(C)C)C1(C)CC3 (stereo not drawn) [EUPHOL ACETATE]"
numeric_readout = 12

[[record]]
molecule = "CNc1ccccc1C(=O)N1CCc2c([nH]c3ccccc23)C1=O"
numeric_readout = 5.9

[[record]]
molecule = "CCC1(O)C(=O)OCc2c1cc1n(c2=O)Cc2cc3ccccc3nc2-1 (stereo not drawn)"
numeric_readout = 3.9

